B1: Osa-1-4 twister ribozyme (parent)
chain: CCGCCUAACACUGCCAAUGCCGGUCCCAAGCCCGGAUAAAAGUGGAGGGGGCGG

# Variants of: B1
# test_method_notes: self-cleavage, relative activity (ratio to wild type); higher = more cleavage; co-transcriptional
# self-cleavage annotations
Answer with a bare number; do not write a unit.

mutation_string: C31U G48C
self-cleavage: 0.05

Sure, the documented self-cleavage for A36G G53U is 0.61

Sure, the documented self-cleavage for G45A G53U is 0.07

Sure, the documented self-cleavage for C20U U18G is 0.82

Sure, the documented self-cleavage for A41C G34A is 0.76

Sure, the documented self-cleavage for A8U G30A is 0.02

Sure, the documented self-cleavage for A10G C31G is 0.1

Sure, the documented self-cleavage for A46G G48A is 0.02

Sure, the documented self-cleavage for U12A U43G is 0.09

All figures here come from the RNAGym collection of RNA variant scans (doi:10.1002/anie.201605470).
